Biological target: 11-beta-hydroxysteroid dehydrogenase type 2 (Homo sapiens, UniProt P80365)
Sequence (P80365 whole entry): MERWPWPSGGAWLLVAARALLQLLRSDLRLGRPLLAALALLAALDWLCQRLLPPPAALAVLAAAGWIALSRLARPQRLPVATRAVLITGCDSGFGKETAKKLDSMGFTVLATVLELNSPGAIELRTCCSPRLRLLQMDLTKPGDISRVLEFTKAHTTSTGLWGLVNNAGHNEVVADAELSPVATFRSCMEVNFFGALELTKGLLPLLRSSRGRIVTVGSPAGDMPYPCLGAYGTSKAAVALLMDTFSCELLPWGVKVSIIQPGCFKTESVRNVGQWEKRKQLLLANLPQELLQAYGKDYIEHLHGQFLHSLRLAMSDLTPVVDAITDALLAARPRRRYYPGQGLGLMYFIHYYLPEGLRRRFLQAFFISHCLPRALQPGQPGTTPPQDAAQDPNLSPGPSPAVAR
pIC50: −log10 of the molar value.
measuredEndpoint: pIC50

Use these answered entries as a reference point.
CC(C(=O)N[C@H]1C2CC3CC1C[C@](O)(C3)C2)N1CCc2ccc3c(c2CC1)OCO3 (stereo not given in full); 4.21
C[C@@H](C(=O)N[C@H]1C2CC3CC1C[C@](O)(C3)C2)N1CC[C@@H](F)C1; < 4.00
O=C(CN1CCN(c2ccc(C(F)(F)F)cn2)CC1)N[C@H]1C2CC3CC1C[C@@](O)(C3)C2; < 5.00

Exam item: So what's the measured pIC50 for this one? O=C(CN1CCN(c2ccc(C(F)(F)F)cn2)CC1)N[C@H]1C2CC3CC1C[C@@](F)(C3)C2
Marked response: < 4.00

Exam item: Which pIC50 reading was recorded for the molecule N#Cc1cccnc1N1CCN(CC(=O)NC2C3CC4CC(C3)CC2C4)CC1 (stereo not given) ?
Marked response: < 4.00
